Origin of measurements: ChEMBL document CHEMBL3994598

Test system: MDA-MB-231
test-details: Cytotoxicity against human MDA-MB-231 cells at 0.0003 to 100 uM after 48 hrs by ATPlite assay
Format: cell-based
measurement-conditions: mda-mb-231, 48 h
quantity-kind: Activity

Observe how each entry below is paired with its result.
// Activity lookup, key: `COc1cc(-c2oc3c(O)cc(-c4oc5cc(O)cc(O)c5c(=O)c4O)cc3c2C)ccc1O` Toxic

// repeat for `COc1cc([C@@H]2Oc3c(O)cc(-c4oc5cc(O)cc(O)c5c(=O)c4O)cc3[C@H]2CO)ccc1O` and report Toxic

Then this compound: CC[C@@]1(O)C(=O)OCc2c1cc1n(c2=O)Cc2cc3ccccc3nc2-1 [CAMPTOTHECIN] Toxic

Try COc1cc([C@H]2Oc3cc([C@H]4Oc5cc(O)cc(O)c5C(=O)[C@@H]4O)ccc3O[C@@H]2CO)ccc1O [SILYBIN A] next. Toxic

And what about the compound COc1cc([C@@H]2Oc3cc([C@H]4Oc5cc(O)cc(O)c5C(=O)[C@@H]4O)ccc3O[C@H]2CO)ccc1O [SILYBIN B] ? Toxic

New cases:
What does the record list as Activity for COc1cc(C2Oc3cc(-c4oc5cc(O)cc(O)c5c(=O)c4O)ccc3OC2CO)ccc1O (stereo unspecified) [DEHYDROSILYLBIN] ? Toxic
